Hello, the source for this data is BigSolDB 2.1, in case you need it.

conditionDescription: in ethyl acetate, 285.65 K
readoutType: solubility (mole fraction)

GET /values?readout=solubility (mole fraction)&item= `Cc1ccc(N)c([N+](=O)[O-])c1` 0.0933

----------
conditionDescription: in 1,2-dichloroethane, 278.15 K
readoutType: solubility (mole fraction)
// return a plain number; no unit text

Endpoint output: solubility (mole fraction) of `Cc1ccc(N)c([N+](=O)[O-])c1` . Value? 0.0289

----------
conditionDescription: in DMF, 300.65 K
readoutType: solubility (mole fraction)
// no unit, no text: just the number

# lookup: solubility (mole fraction) of `Cc1ccc(N)c([N+](=O)[O-])c1` 0.182

----------
conditionDescription: in 2-butanone, 288.15 K
readoutType: solubility (mole fraction)
The response must contain the number and no unit.

Which solubility (mole fraction) value is on record for `Cc1ccc(N)c([N+](=O)[O-])c1` ? 0.153

----------
conditionDescription: in DMF, 288.15 K
readoutType: solubility (mole fraction)
API note: the answer field is a bare number with no unit suffix.

Would you mind telling me what solubility (mole fraction) value was observed for `Cc1ccc(N)c([N+](=O)[O-])c1` ? 0.131

----------
conditionDescription: in ethyl acetate, 303.15 K
readoutType: solubility (mole fraction)
Lab note: jot down the number only; don't add units.

Given `Cc1ccc(N)c([N+](=O)[O-])c1` , state its recorded solubility (mole fraction). 0.144

----------
conditionDescription: in methanol, 313.15 K
readoutType: solubility (mole fraction)
Provide a numeric answer; units are not to be included.

// solubility (mole fraction) lookup, key: `Cc1ccc(N)c([N+](=O)[O-])c1` 0.0268

----------
conditionDescription: in toluene, 295.65 K
readoutType: solubility (mole fraction)
# output: bare number, no unit

Field request: solubility (mole fraction) | item: `Cc1ccc(N)c([N+](=O)[O-])c1` 0.0236

----------
conditionDescription: in toluene, 280.65 K
readoutType: solubility (mole fraction)
Please respond with just the number, no unit label.

Consider the compound shown here: `Cc1ccc(N)c([N+](=O)[O-])c1` What is its recorded solubility (mole fraction)? 0.0131

----------
conditionDescription: in methanol, 308.15 K
readoutType: solubility (mole fraction)
Answer as a number with no unit attached.

I'd like to know its solubility (mole fraction). The compound in question is `Cc1ccc(N)c([N+](=O)[O-])c1` 0.023

----------
conditionDescription: in isopropanol, 303.15 K
readoutType: solubility (mole fraction)
Number only, no unit.

# query: solubility (mole fraction) of entry `Cc1ccc(N)c([N+](=O)[O-])c1` 0.0248

----------
conditionDescription: in 1,2-dichloroethane, 285.65 K
readoutType: solubility (mole fraction)
Write the value as a bare number.

Can you look up the measured solubility (mole fraction) of `Cc1ccc(N)c([N+](=O)[O-])c1` for me? 0.0397

----------
conditionDescription: in isopropanol, 310.65 K
readoutType: solubility (mole fraction)
Please respond with just the number, no unit label.

Request the reported solubility (mole fraction) associated with `Cc1ccc(N)c([N+](=O)[O-])c1` 0.0317

----------
conditionDescription: in tetrachloromethane, 318.15 K
readoutType: solubility (mole fraction)

Reported solubility (mole fraction) for `Cc1ccc(N)c([N+](=O)[O-])c1` : what is it? 0.0117

----------
conditionDescription: in tetrachloromethane, 280.65 K
readoutType: solubility (mole fraction)

Sample `Cc1ccc(N)c([N+](=O)[O-])c1` — what was its solubility (mole fraction)? 0.00265

----------
conditionDescription: in DMF, 278.15 K
readoutType: solubility (mole fraction)
Answer field: number only, no words.

Item under review: `Cc1ccc(N)c([N+](=O)[O-])c1` . Reported solubility (mole fraction)? 0.0984

----------
conditionDescription: in 1,2-dichloroethane, 300.65 K
readoutType: solubility (mole fraction)
Just the number, please, no unit after it.

# get_value(readout='solubility (mole fraction)', item= `Cc1ccc(N)c([N+](=O)[O-])c1` ) 0.0642

----------
conditionDescription: in n-propanol, 295.65 K
readoutType: solubility (mole fraction)
Please reply with the number alone, leaving off any unit.

Value lookup for solubility (mole fraction); key = `Cc1ccc(N)c([N+](=O)[O-])c1` 0.0202

----------
conditionDescription: in toluene, 283.15 K
readoutType: solubility (mole fraction)
Respond using a number only.

Consider the compound `Cc1ccc(N)c([N+](=O)[O-])c1` and give its measured solubility (mole fraction). 0.0146

----------
conditionDescription: in tetrachloromethane, 308.15 K
readoutType: solubility (mole fraction)

Given the entry `Cc1ccc(N)c([N+](=O)[O-])c1` , report its measured solubility (mole fraction). 0.00797

----------
conditionDescription: in toluene, 300.65 K
readoutType: solubility (mole fraction)
# print the numeric value only

Please report the recorded solubility (mole fraction) for `Cc1ccc(N)c([N+](=O)[O-])c1` . 0.0284

----------
conditionDescription: in DMF, 283.15 K
readoutType: solubility (mole fraction)

Consider the compound shown here: `Cc1ccc(N)c([N+](=O)[O-])c1` What is its recorded solubility (mole fraction)? 0.112

----------
conditionDescription: in isopropanol, 280.65 K
readoutType: solubility (mole fraction)
Would you mind answering with just the numeric figure?

Item under review: `Cc1ccc(N)c([N+](=O)[O-])c1` . Reported solubility (mole fraction)? 0.0112

----------
conditionDescription: in 2-butanone, 285.65 K
readoutType: solubility (mole fraction)
Quick one: just the number, no unit, thanks!

Which solubility (mole fraction) value belongs to `Cc1ccc(N)c([N+](=O)[O-])c1` ? 0.144

----------
conditionDescription: in tetrachloromethane, 313.15 K
readoutType: solubility (mole fraction)
Number, no unit, nothing else.

Can you share its solubility (mole fraction)? I mean this compound: `Cc1ccc(N)c([N+](=O)[O-])c1` 0.00963

----------
conditionDescription: in ethanol, 278.15 K
readoutType: solubility (mole fraction)

Returns the measured solubility (mole fraction) for the input compound. Input: `Cc1ccc(N)c([N+](=O)[O-])c1` 0.00983

----------
conditionDescription: in 2-butanone, 293.15 K
readoutType: solubility (mole fraction)
// no unit, no text: just the number

Requested field: solubility (mole fraction). Item: `Cc1ccc(N)c([N+](=O)[O-])c1` 0.171

----------
conditionDescription: in toluene, 288.15 K
readoutType: solubility (mole fraction)
Just the number, please, no unit after it.

Consider the compound shown here: `Cc1ccc(N)c([N+](=O)[O-])c1` What is its recorded solubility (mole fraction)? 0.0176

----------
conditionDescription: in 2-butanone, 300.65 K
readoutType: solubility (mole fraction)
Output spec: single numeric token, no unit.

Report solubility (mole fraction) for `Cc1ccc(N)c([N+](=O)[O-])c1` please. 0.202

----------
conditionDescription: in 2-butanone, 295.65 K
readoutType: solubility (mole fraction)
Provide a numeric answer; units are not to be included.

Given the entry `Cc1ccc(N)c([N+](=O)[O-])c1` , report its measured solubility (mole fraction). 0.181

----------
conditionDescription: in n-propanol, 288.15 K
readoutType: solubility (mole fraction)
Please state the value as a number alone, without comment.

Which solubility (mole fraction) is listed for `Cc1ccc(N)c([N+](=O)[O-])c1` ? 0.0157

----------
conditionDescription: in toluene, 298.15 K
readoutType: solubility (mole fraction)
Enter a number only.

I would be grateful if you could share the reported solubility (mole fraction) for `Cc1ccc(N)c([N+](=O)[O-])c1` . 0.0259

----------
conditionDescription: in methanol, 303.15 K
readoutType: solubility (mole fraction)
Could you keep your reply to the number by itself?

Look at this compound and give its reported solubility (mole fraction). `Cc1ccc(N)c([N+](=O)[O-])c1` 0.0198

----------
conditionDescription: in n-propanol, 290.65 K
readoutType: solubility (mole fraction)

Item `Cc1ccc(N)c([N+](=O)[O-])c1` has what recorded solubility (mole fraction)? 0.017

----------
conditionDescription: in n-propanol, 305.65 K
readoutType: solubility (mole fraction)
# print the numeric value only

# input molecule: `Cc1ccc(N)c([N+](=O)[O-])c1` ; wanted: its solubility (mole fraction) 0.0278

----------
conditionDescription: in acetonitrile, 288.15 K
readoutType: solubility (mole fraction)
Give the figure by itself; no unit, no explanation.

Look up solubility (mole fraction) for this compound: `Cc1ccc(N)c([N+](=O)[O-])c1` 0.0406

----------
conditionDescription: in tetrachloromethane, 290.65 K
readoutType: solubility (mole fraction)
Output spec: single numeric token, no unit.

solubility (mole fraction) for `Cc1ccc(N)c([N+](=O)[O-])c1` ? 0.00406

----------
conditionDescription: in 1,4-dioxane, 285.65 K
readoutType: solubility (mole fraction)
// return just the number, without any unit appended

// lookup solubility (mole fraction) for `Cc1ccc(N)c([N+](=O)[O-])c1` 0.0452

----------
conditionDescription: in ethanol, 295.65 K
readoutType: solubility (mole fraction)
Kindly provide the number alone.

Would you kindly share the measured solubility (mole fraction) for `Cc1ccc(N)c([N+](=O)[O-])c1` ? 0.0179

----------
conditionDescription: in 1,4-dioxane, 300.65 K
readoutType: solubility (mole fraction)
# output: bare number, no unit

Please look up its solubility (mole fraction): `Cc1ccc(N)c([N+](=O)[O-])c1` 0.0883
